Target or system PIK3CD (Human) (UniProt O00329): recorded IC50 listed per item.

| COMPOUND | EXPERIMENTAL READOUT | RESULT |
| --- | --- | --- |
| COc1c(C(C)Nc2ncnc3[nH]cnc23)cc(Cl)c(C)c1-c1cncc(C#N)c1 (stereo not drawn) | IC50 | < 50 nM |

What IC50 value was documented for this compound, COc1c(-c2cncnc2)cc(Cl)cc1C(C)Nc1ncnc2[nH]cnc12 (stereo not drawn) ?
50 to 100 nM

What IC50 value was documented for this compound, COc1c(-c2ccc(NC(C)=O)cc2)cc(Cl)cc1C(C)Nc1ncnc2[nH]cnc12 (stereo not drawn) ?
50 to 100 nM
